Experiment: modulators of HCV replicon luciferase signal, primary screen, HCV replication inhibitor project, Huh7 cells, luciferase reporter (AID 1109);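 further: huh7 hepatoma cells harbouring a luciferase neomycin HCV replicon reporter; test concentration not given here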
Details: 48 h, higher = more signal
measure: z-score
// no unit string in output, number only

The compound C=CCN1C(=O)[C@@]2(O[C@@H](CCO)[C@H]([Si](C)(C)c3ccc(OC)cc3)[C@H]2C)c2cc(N3CCOC3=O)ccc21 showed z-score equal to -4.84

Recorded result, C=C(C(=O)CC[C@H](OC(=O)c1ccccc1-c1ccccc1C(=O)O)c1ccccc1OCCO)C(C)C , z-score: -1.59

// z-score value for C=C(COC)/C(=C/C[C@@H](OC(=O)c1ccncc1)c1ccccc1OCCO)c1cc(C(=O)OC)ccc1OC : -2.5

// sample CCOC(=O)C[C@H]1[C@H](OC(=O)c2ccc(-c3ccccc3)cc2)[C@@H](NC(=O)CC(C)C)c2cc(OCCCO)ccc2N1C(=O)c1ccccc1 , its z-score was -1.96

Form: compound = COc1ccc([Si](C)(C)[C@H]2[C@H](CCO)O[C@@]3(C(=O)N(Cc4ccc(N5C(=O)c6ccccc6Oc6ccccc65)cc4)c4ccccc43)[C@@H]2C)cc1 ; z-score = -4.8

Reported z-score ( O=C1C2C=CC(C(O)c3cccc(O)c3)N(Nc3ccccc3)C2C(=O)N1c1ccccc1 (centres undefined) ) = -0.424

Note to self: z-score recorded for CN(C)C(=O)[C@]1(CCS(=O)(=O)c2ccccc2)N=C(c2ccc(OCCCO)cc2)O[C@@H]1c1ccccc1 was -2.25

Lookup result for [N-]=[N+]=Nc1ccccc1C[C@@]1(C(=O)O)N=C(c2ccc(OCCCO)cc2)O[C@@H]1c1ccccc1N=[N+]=[N-] ; measured z-score: -1.26

Measured z-score, O=C1N(CCS(=O)(=O)c2ccccc2)Cc2ccccc2[C@@H]2OC(c3ccc(OCCCO)cc3)=N[C@]12CCS(=O)(=O)c1ccccc1 : -0.0756

Reported z-score of O=C1[C@@]23C=C(Br)[C@H](C[C@@H]2COC3)[C@@]12CO2 : -2.52

// [N-]=[N+]=NCc1ccccc1C[C@@]1(C(=O)N2CCCCC2)N=C(c2ccc(OCCCO)cc2)O[C@@H]1c1ccccc1CN=[N+]=[N-] : z-score value = -2.73

Memo: C=C[C@@H](OC)[C@H](OC(=O)Nc1ccc(SC)cc1)c1ccc(OCCO)cc1 , reported z-score: 0.462

Record summary for C=C(CCCC)/C(=C/C[C@H](OC(C)=O)c1ccc(OCCO)cc1)c1cc(C(=O)OC)ccc1OC : reported z-score = -1.69

# compound O=C(CS)NCCCCCCNC(=O)[C@@H]1C[C@@H]2C(=O)NCC(=O)N2[C@@H]1c1ccc(O)cc1 ; its z-score = 0.394

Measured z-score of COCCOC(=O)N1C(=O)[C@@]2(c3cc(C#CC4(O)CCCCCC4)ccc31)[C@H](C(=O)N1CCN(c3ncccn3)CC1)[C@H]1C(=O)O[C@H](c3ccccc3)[C@H](c3ccccc3)N1[C@@H]2c1ccccc1OCCO : -2.22

Sure, the documented z-score for COCCOC(=O)N1C(=O)[C@@]2(c3cc(C#CCC(C(=O)OC)C(=O)OC)ccc31)[C@H](C(=O)NC[C@H](O)c1ccccc1)[C@H]1C(=O)O[C@H](c3ccccc3)[C@H](c3ccccc3)N1[C@@H]2c1ccc(O)cc1 is -0.545

Measured z-score, COc1cc(C(O)C2C=CC3C(=O)N(Cc4ccccc4)C(=O)C3N2n2cnnc2)cc(OC)c1OC (centres undefined) : 0.312

Reported z-score for CCOC(=O)C1=CCC(c2ccco2)N(S(=O)(=O)c2ccc(C)cc2)C1 (centres undefined) was -2.3

Recorded z-score (compound COc1ccc(C(=O)Nc2cccc(CN3C(=O)[C@@]4(O[C@@H](CC(=O)N(CCO)Cc5ccccc5)[C@H]([Si](C)(C)c5ccc(OC)cc5)[C@H]4C)c4ccccc43)c2)cc1 ): -3.89

Value of z-score reported for the compound CCCCNC(=O)c1ccc(C#C[Si](C(C)C)(C(C)C)C(C)C)c(OC(C)=O)c1 is -1.13

response.value for CC=CC(O)C1C=CC2C(=O)NC(=O)C2N1Nc1ccccn1 (centres undefined) (field: z-score) = 0.634

Form: compound = C=C(C(=O)CC[C@@H](OC(=O)c1ccccc1-c1ccccc1C(=O)O)c1ccccc1OCCO)C(C)C ; z-score = -2.63

Lab book: z-score of C=CCC(OC(C)=O)[C@@H]1[C@@H](N(Cc2ccc(-c3cccc(C(F)(F)F)c3)o2)C(=O)Cc2ccc(OC)cc2)c2cc(OCCCO)ccc2N1C(=O)Cc1ccc2ccccc2c1 (some centres undefined) noted as 0.685

Note to self: z-score recorded for COc1ccc(C(=O)Nc2cccc(CN3C(=O)[C@]4(O[C@H](CCn5cc([C@H](O)c6ccccc6)nn5)[C@@H]([Si](C)(C)c5ccc(OC)cc5)[C@@H]4C)c4ccccc43)c2)cc1 was -5.19

The compound CCOC(=O)C1=CC[C@@H](c2ccccc2)N(S(=O)(=O)c2ccc(C)cc2)[C@H]1c1cccc(OC)c1 showed z-score equal to -1.96

Lookup result for O=C1C2C=CC(C(O)c3cc(C(F)(F)F)cc(C(F)(F)F)c3)N(Nc3ccccc3F)C2C(=O)N1c1ccccc1 (centres undefined) ; measured z-score: -2.74

// field: z-score; key: CC(C)(C)OC(=O)CC[C@]12N=C(c3ccc(OCCCO)cc3)O[C@H]1c1ccccc1N(Cc1ccccc1)C2=O ; value = -2.09

Lab note: [N-]=[N+]=NC[C@H](Cc1ccccc1)NC(=O)c1ccccc1 gave z-score of 2.25

// C=CCNC(=O)[C@H]1[C@@H]2C(=O)O[C@@H](c3ccccc3)[C@@H](c3ccccc3)N2[C@@H](c2ccc(OCCO)cc2)[C@]12C(=O)N(C(=O)OCCOC)c1ccc(C#Cc3ccc(OC)cc3)cc12 : z-score value = -2.54
